Cited source for all entries: patent US20250277029A1

Target: human cannabinoid receptor 1 (huCB1), full length, expressed on cells (human, UniProt P21554 1-472)
Sequence (P21554 whole entry): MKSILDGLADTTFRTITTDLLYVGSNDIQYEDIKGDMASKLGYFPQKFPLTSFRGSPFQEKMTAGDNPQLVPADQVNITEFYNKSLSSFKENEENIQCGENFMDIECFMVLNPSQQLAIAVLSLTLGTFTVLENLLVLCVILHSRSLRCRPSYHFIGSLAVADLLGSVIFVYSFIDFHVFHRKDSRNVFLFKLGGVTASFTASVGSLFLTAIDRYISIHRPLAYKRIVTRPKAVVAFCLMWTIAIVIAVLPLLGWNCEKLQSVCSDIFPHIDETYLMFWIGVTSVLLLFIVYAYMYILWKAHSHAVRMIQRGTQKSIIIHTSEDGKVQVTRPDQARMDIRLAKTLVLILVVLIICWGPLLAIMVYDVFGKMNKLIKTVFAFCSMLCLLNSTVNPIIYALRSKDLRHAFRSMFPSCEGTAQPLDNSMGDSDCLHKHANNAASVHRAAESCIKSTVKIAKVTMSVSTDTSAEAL
Protocol Details: cell-based or functional assay
Item-by-item account of n = 1 IC50, -fold vs Rimo
Quantity Measured: n = 1 IC50, -fold vs Rimo (fold vs Rimonabant)

• LIBC527906-1 (antibody, V domains shown) VH: QVQLQESGPGLVKPSQTLSLTCTVSGGSIRRGGDYWGWIRQHPGKGLEWIGHIYQTGSTNYNPNFKDRATISVDTYKNQFSLKLSSVTAADTAVYYCARDYDILTGYSYYYYGMDVWGQGTTVTVSS VL: DIQLTQSPSTLSASVGDRVTITCRASQSISNYLNWYQQKPGKAPKLLIYAASSLHSGVPSRFSGSGSGTDFTLTISSLQPEDFASYYCQQYQSYPLTFGQGTKVEIKR = 1.82
• LIBC527827-1 (antibody, V domains shown) VH: QVQLQESGPGLVKPSQTLSLTCTVSGGSIRRGGDYWGWIRQHPGKGLEWIGHVYQSGQTAYNPKFENRATISVKTYKNQFSLKLSSVTAADTAVYYCARNYDTLTGHSYYYYGMDVWGQGTTVTVSS VL: DIQMTQSPSTLSASVGDRVTITCRASQSISNYLNWYQQKPGKAPKLLIYAASSLHSGVPSRFSGSGSGTDFTLTISSLQPEDFASYYCQQYQSYPLTFGQGTKVEIKR = 7.6
• LIBC523760-1 (antibody, V domains shown) VH: QVQLQESGPGLVKPSQTLSLTCTVSGGSIRRGGDYWSWIRQHPGKGLEWIGHVYQTGSTKYNPKFKGRATISVNTYKNQFSLKLSSVTAADTAVYYCARDYDILTGYSYYYYGMDVWGQGTTVTVSS VL: DIVMTQSPLSLPVTPGEPASISCRSSQSLLTSSGANYVDWYLQKPGQSPQLLIYLGSNRASGVPDRFSGSGSGTDFTLKISRVEAEDVGVYYCRQAVGTPRTFGQGTKVEIKR = 1.45
